test: Human HepG2 cell viability assay in 384 well format; assay type: toxicity, cell-based; set-up: dose 125 nL, time 70.5 hour; concentration not given beside the values; conditions: HepG2 cells, read-out: Inhibition
reportedProperty: cytotoxicity at 70.5 h (%)

- compound: "CC(C)c1nccc([C@@H]2C[C@@H]3CCN(Cc4ccoc4)C[C@H]3O2)n1"
  value: -4.41
- compound: "CC(=O)NC(=O)C1(CCCc2ccncc2)CCN1 (configuration not stated)"
  value: -2.25
- compound: "COc1ccccc1CN1CC(O)CN(C(=O)OCC(C)C)CC1=O (configuration not stated)"
  value: -10.9
- compound: "O=C(Cc1ccc(F)cc1)N1CCn2cc(Cn3cncn3)nc2C1"
  value: -9.64
- compound: "O=C(O)c1cc(/C=C/c2cccc3ccccc23)ncn1"
  value: -7.2
- compound: "OC(CNC1CCOCC1)c1ccc(Cl)c(F)c1 (configuration not stated)"
  value: 0.212
- compound: "Cc1n[nH]cc1CNCC(c1ccsc1)N(C)C (configuration not stated)"
  value: -7.79
- compound: "CC(=O)c1cccc(S(=O)(=O)NCCNC(=O)c2snnc2C)c1"
  value: 7.7
- compound: "CN(C)CCNC(=O)[C@H]1C[C@@H]2CN(C(=O)NC3CCCC3)C[C@H]1O2"
  value: 5.4
- compound: "CCOc1ccc(C(=O)Nc2ccn(CC)n2)cc1"
  value: -1.03
- compound: "CCC(=O)N1CC[C@H](O)[C@@H]1Cc1ccccc1"
  value: -9.02
- compound: "c1cc(C2CN(C3CCCCC3)C2)n[nH]1"
  value: 17.8
- compound: "O=C(NC[C@H]1OC[C@@H](NCc2ccc(F)cc2)[C@@H]1O)c1ccncc1"
  value: 0.548
- compound: "Cn1cc(C2CCCN2CCc2nc3ccccc3c(=O)[nH]2)cn1 (configuration not stated)"
  value: -2.12
- compound: "CN(C)C[C@@H]1CCC[C@@H]2CN(c3nccc(C(F)(F)F)n3)C[C@@H]21"
  value: 23.3
- compound: "CCN1CCOCC2(CCCN(C(=O)c3ccccc3F)C2)C1 (configuration not stated)"
  value: 8.58
- compound: "Cc1cccc(S(=O)(=O)N2C[C@H]3C[C@H](C(=O)N(C)C)[C@@H](C2)O3)c1"
  value: 1.15
- compound: "CN(C)c1ncc(I)c(C2CCCCN2C)n1 (configuration not stated)"
  value: -3.55
- compound: "CCC1CN(C(=O)c2cc(CN(C)CCc3ccccc3)on2)CCO1 (configuration not stated)"
  value: -7.15
- compound: "CN(CCN1CCOCC1)S(=O)(=O)CC1CCCC1"
  value: -0.906
- compound: "Cc1cc(C(=O)NC2(c3cccc(F)c3)CCOCC2)no1"
  value: -7.78
- compound: "O=C(c1cscn1)N1C[C@H]2CCC[C@@]2(COCc2ccccn2)C1"
  value: -6.34
- compound: "O=C(NCCNc1ncccn1)N1CCN(C2CCCC2)CC1"
  value: -8.5
- compound: "CS(=O)(=O)CCOCCNc1ccc2ccc(F)cc2n1"
  value: -3.21
- compound: "Cn1ncc2c(N3CCCN(C(=O)c4ccsc4)CC3)ncnc21"
  value: -1.19
- compound: "Cc1noc(C)c1CN1CCc2ncc(Cn3cccn3)n2CC1"
  value: -5.78
- compound: "Cc1nc(CN2CCCC(NCc3ccc(Cl)s3)C2)no1 (configuration not stated)"
  value: -13
- compound: "CC(NCCCN1CCCN(C)CC1)C(C)(C)C (configuration not stated)"
  value: -11.8
- compound: "O=C(NCCCO)Nc1cccc(C[S+]([O-])c2ccccc2)c1 (configuration not stated)"
  value: -6.37
- compound: "CNC(=O)C1CN(C(=O)Cc2ccc(OC)cc2)Cc2cn(C)nc21 (configuration not stated)"
  value: -7.07
- compound: "Cc1ccccc1OCCCC(=O)NC(C)c1nnc2n1CCC2 (configuration not stated)"
  value: -2.09
- compound: "Cc1nc(C2CCCN(C(=O)CCn3ccccc3=O)C2)no1 (configuration not stated)"
  value: -3.24
- compound: "COc1c(C2CCCN2C(=O)c2cc(Cl)c[nH]2)c(C)nn1C (configuration not stated)"
  value: -0.121
- compound: "CC(C)N(C(=O)c1ccccc1-c1nc2c([nH]1)CCNC2)C(C)C"
  value: 5.55
- compound: "CC(C)(C)c1csc(CCNC(=O)[C@H](c2ccccc2)n2cnnn2)n1"
  value: -5.57
- compound: "CC(=O)NCc1nnn2c1CN(c1ncc(C)cn1)CCC2"
  value: -20.5
- compound: "NC(=O)NCCC(=O)N1CCC(c2cc(-c3ccccc3Cl)n[nH]2)CC1"
  value: -1.52
- compound: "O=C1CCC2(CCN(Cc3cscn3)CC2)CN1CC1CCCO1 (configuration not stated)"
  value: 10.4
- compound: "CCCNC(=O)CNc1cc(C#N)ccc1OCC"
  value: 14.1
- compound: "CC(C)n1c(C(=O)N2CCCC2)nc2c1CCN(C)C2"
  value: -5.23
- compound: "CC(C)c1nnc2n1CCN(C(=O)c1cccc(OCC(N)=O)c1)C2"
  value: -2.06
- compound: "COCC(=O)N1CCC(c2cc3n(n2)[C@@H](C(F)(F)F)C[C@@H](C)N3)CC1"
  value: -8.82
- compound: "COc1c(C)cnc(CN2CCOC(Cn3cc(C)cn3)C2)c1C (configuration not stated)"
  value: 0.484
- compound: "CCN(CC1CCCN(CCc2cccc(OC)c2)C1)C(=O)CO (configuration not stated)"
  value: -0.648
- compound: "COC[C@@H]1CCC[C@@]12CN(Cc1ccc(C)s1)CCO2"
  value: 48.9
- compound: "CCC(C(=O)N(C)C)n1ccc2ncccc2c1=O (configuration not stated)"
  value: -13.2
- compound: "CNC(=O)CN1CCOC(c2ccccc2C(F)(F)F)C1 (configuration not stated)"
  value: 7.85
